B1: TPR 5TU (parent)
chain: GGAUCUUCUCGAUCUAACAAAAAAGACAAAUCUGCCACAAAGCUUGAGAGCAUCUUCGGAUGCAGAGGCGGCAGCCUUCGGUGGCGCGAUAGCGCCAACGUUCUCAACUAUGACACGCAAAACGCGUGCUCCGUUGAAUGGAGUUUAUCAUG

# Variants of: B1
# ASSAY INFO: polymerase ribozyme fitness, log enrichment relative to wild type (log ratio); higher = more active; in vitro selection for triplet polymerase activity
Variants at the floor of the assay were thinned out.
METRIC NAME: polymerase ribozyme fitness (log ratio)
Respond using a number only.

Some entries whose results are on file:
C5G G83U A98U C105U; -1.03
U111A; -3.05
G50U G86U; -1.71
C38U C93A A119C A142U; -3.54
A19G C54G C96G C149U; -3.72

Look up polymerase ribozyme fitness (log ratio) for this variant: C93A U146C
-2.18

Now this one: A16C G84U A120G
-2.78

Please do the same for A24U A28G C36U G62A U78G G83A A91G G128C as well.
-3.66

Also C72U C85G , if possible.
-1.95

Check C18U G65A too.
-1.77

Then C99G A137C A142G ?
-3.71

Input C87U U102C
-1.21

Then what about the variant A22U A28G ?
-3.35

Next record, please: G58U C123U
0.837

What do you get for C27A C85U C96A C114U A119G G140C ?
-4.07

# iterate: C75U G84U U101C
-1.45

Queued: A47U U55A
-0.542

Next variant up: G59A C118A
-0.536

Same again, this time with A40C U82G A89G
0.203

// repeat for G71C A119G and report
-3.01
